protocol.text: chemical genetic growth profiling, strain panel (AID 1159580);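 note: tested at 20 µM; growth read once vehicle control cultures reached saturation at 30 °C; lower values mean less growth of the strain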
run.conditions: S. cerevisiae deletion strains, growth OD, locus YJL095W, strain BCK1
Among all 5,500 compounds or so, about 2,000 (36%) were called active. About 18% were inconclusive and are not listed. Cut-off read from the data, not from the text of the source: active = normalized growth mostly below about 0.91 (no sharp cut-off); inconclusive = no clear call, values can overlap the other calls; inactive = mostly above about 0.92. The list shows a part of the results.
Outcomes: YES for active, NO for inactive

molecule	discrete.label
C[C@@H]1CC2C3CCC4=CC(=O)C=C[C@]4(C)[C@@]3(F)[C@@H](O)C[C@]2(C)[C@@]1(O)C(=O)CO (stereo not given in full)	NO
CC(O)(P(=O)(O)O)P(=O)(O)O	NO
COc1cc(NS(C)(=O)=O)ccc1Cc1c2ccccc2nc2ccccc12	NO
Nc1nc(F)nc2c1ncn2[C@@H]1O[C@H](COP(=O)(O)O)[C@@H](O)[C@@H]1O	NO
CNc1ccc(C(=O)CC(O)CCC(C)C2OC(=O)CC(O)CC(=O)CC(O)CC(O)CC(O)CC(O)CC3(O)CC(O)C(C(=O)OC)C(CC(OC4OC(C)C(O)C(N)C4O)/C=C/C=C/C=C/C=C/C=C/C=C/C=C/C2C)O3)cc1 (stereo not given)	YES
COc1ccc2nc(S(=O)Cc3ncc(C)c(OC)c3C)[nH]c2c1 (stereo not given)	YES
N#Cc1ccc(Oc2sccc2[N+](=O)[O-])cc1	NO
CC(=O)O[C@@H]1CC2C(C)(C)C(=O)C3OC3[C@]2(C)C2CC[C@@]3(C)[C@H](c4ccoc4)OC(=O)C4OC43[C@@]21C (stereo not given in full)	NO
Cc1c[nH]c2ccccc12	NO
Cc1ccc(NC(=S)C(C#N)C(=O)N2CCOCC2)c(C)c1 (stereo not given)	NO
Brc1ccc(-c2csc(-c3cccnc3)n2)cc1	YES
CN(C)c1ccc(/C=C/c2ccc3ccccc3[n+]2C)cc1	NO
Nc1ccccc1C(=O)Nc1cc(C(F)(F)F)cc(C(F)(F)F)c1	NO
COC(=O)[C@@H]1OC(=O)C2OC23[C@@]1(C)CCC1[C@@]2(C)CCC(=O)C(C)(C)C2C[C@@H](OC(C)=O)[C@]13C (stereo not given in full)	NO
Cc1ccccc1/C=C/c1c[nH]c2ccccc12	NO
O=S(=O)(NCc1ccc(C(F)(F)F)cc1)c1cccc(C(F)(F)F)c1	NO
CC1C/C=C/C=C/C=C/C=C/C(O[C@@H]2O[C@H](C)[C@@H](O)[C@H](N)[C@@H]2O)CC2OC(O)(CC(O)CC3OC3/C=C/C(=O)O1)CC(O)C2C(=O)O (stereo not given in full)	NO
Clc1cccc(Nc2ncc(-c3ccc4c(c3)OCCCO4)s2)c1	NO
CC(C)(C)C1=C(C#N)C(c2c(Cl)cccc2Cl)C(C#N)=C(N)O1 (stereo not given)	NO
Cc1ccc(S(=O)(=O)Nc2nc(-c3ccc(C)c(Cl)c3)c(C)s2)cc1	YES
Nc1ccc(Oc2ccc(Cl)cc2C2CCCCC2)nc1	NO
Cc1c(S(=O)(=O)Nc2cccc([N+](=O)[O-])c2)sc2ccc(Cl)cc12	NO
CC1CCC(C(C)C)C(N(Cc2ccccc2)C(=O)c2ccccc2)C1 (stereo not given)	NO
O=C(Nc1cc(Cl)ccc1O)c1ccccc1CSc1ccc(Cl)cc1	NO
CC(=O)O[C@@H]1CC2C(C)(C)[C@@H](O)CC[C@]2(C)C2CC[C@@]3(C)[C@H](c4ccoc4)OC(=O)[C@H]4O[C@]43[C@@]21C (stereo not given in full)	NO
O=c1oc2ccccc2cc1[N+](=O)[O-]	YES
COC1C=CC23c4cc5c(cc4CN(CC2O)[C@@H]3C1)OCO5 (stereo not given in full)	NO
Clc1cc(Cl)cc(C=NCc2ccccc2)c1	YES
COc1ccnc(CS(=O)c2nc3ccc(OC(F)F)cc3[nH]2)c1OC (stereo not given)	NO
Clc1ccccc1CN1CCc2sccc2C1	NO
CN/C(=C\[N+](=O)[O-])NCCSCc1csc(CN(C)C)n1	NO
COc1ccc(-c2cn3cc(C)ccc3n2)cc1	NO
Cc1ccc(-c2nc(NS(=O)(=O)c3cccc4nonc34)sc2C)cc1Cl	NO
C[C@]12C=CC(=O)C=C1CCC1C2[C@@H](O)C[C@@]2(C)C1CC[C@]2(O)C(=O)CO (stereo not given in full)	NO
C[C@@H](Nc1ncnc2sc3c(c12)CCCC3)c1ccccc1	NO
COc1ccc2c(c1)CCc1sc(NC(=O)c3ccco3)nc1-2	NO
CC(=O)O[C@@H]1CC2C(C)(C)[C@H](O)C=C[C@]2(C)C2CC[C@@]3(C)[C@H](c4ccoc4)OC(=O)C4OC43[C@@]21C (stereo not given in full)	NO
COC(=O)[C@H](c1ccccc1Cl)N1CCc2sccc2C1	NO
CCCCC(=O)O[C@]1(C(=O)CO)CCC2C3CCC4=CC(=O)CC[C@]4(C)C3[C@@H](O)C[C@@]21C (stereo not given in full)	NO
O=S(=O)(Nc1cc(Cl)c(Cl)cc1Cl)c1cc(C(F)(F)F)cc(C(F)(F)F)c1	NO
